system: LPS-induced RAW 264.7 cells (NO production); assay: NO production (Griess) in LPS-induced RAW 264.7 cells; type: cell-based; details: Mus musculus, RAW264.7, 24 h, read-out: IC50 Value of NO Inhibition
Exercise: state measured pIC50 for each of the compounds provided.
Numbers only, as −log10 of the molar value.

Please review the following examples before continuing.
Compound	Readout Type	Result Number
C=C1C(=O)O[C@@H]2C[C@H]1CC[C@]1(C)O[C@H]1CC/C(C)=C/CC[C@]2(C)O [SC-9, sinularin]	pIC50	5.41
C=C1C(=O)OC2(C)CCC1CC1OC1(C)CCC=C(C)CCC2=O (stereo not drawn) [SC-2, 11-dehydrosinulariolide]	pIC50	5.25

Now look at this one.
Record summary for C=C1C(=O)OC2(C)CCC1CC1OC1(C)CCC(OC(C)=O)C1(C)CCC2O1 (stereo not drawn) [SC-7] : reported pIC50 = 4.82
